- Tested on: UACC-257 melanoma
- assay: NCI-60 one-dose screen, 48 h (100 = growth as untreated, 0 = no growth, -100 = all killed)
- settings: 10 µM unless noted
About 83,000 compounds went through this panel and 20% of them were active in at least one assay; those are over-represented in the sample as a whole.
readout_kind: growth (%)
Answers are plain numbers, in %.

Prompt: Look up growth: COc1ccc(-c2cc(-c3ccc(Cl)cc3)c(C#N)c(=O)n2CCCCC(=O)NO)cc1
Response: 80

Prompt: Recorded growth for COC(=O)[C@H](C)NC(=O)c1ccc(NC(=O)c2[nH]c(C)c(Cl)c2Cl)c(OCCN)c1 , please?
Response: 104

Prompt: Could you tell me which growth is on file for COc1cccc(CNc2nnc(C)c(C)n2)c1O ?
Response: 95

Hi there! I need growth for each item below, if you can.
1. CC(=O)Cc1nsc(NC(=O)c2cc(-c3cc(Cl)ccc3Cl)oc2C)n1
2. O=C1C=CC2(O)OC(c3ccccc3)CC(=O)C2=C1O (stereo unspecified)

Response:
[93.8, 87.9]

Please supply growth for each of the following items, keeping them in order.
1. COc1ccc(-c2nc3cc(C(=O)NC4CCCCC4)ccc3n2C2CCCCC2)cc1
2. CN(C)c1ccc(/C=C/C2=[N+](C)c3ccccc3C2(C)C)cc1
3. COc1ccc(C2=NN3C(C2)c2cc(Br)ccc2OC3c2ccncc2)cc1 (stereo unspecified)
4. CC1(C)CCC[C@]23C(=O)O[C@](O)(C(=O)C4=C[C@@](C)(/C=C/CCCc5ccc6ccc7cccc8ccc5c6c78)CC[C@@]42O)[C@@H]13
5. CCCCC1=C(Br)C(=O)c2ncccc2C1=O
6. COc1ccc(Cn2cc(C(=O)N=Nc3c(O)[nH]c4ccc(Br)cc34)nn2)cc1

Response:
[104, 12.6, 86.2, -68.7, 92.6, 102]

Provide the reported growth of each entry below, same order.
1. CCc1ccc(Cc2cnc(NC(=O)c3cc(C)oc3C)s2)cc1
2. COc1ccc(/C=N/NC(=O)Cn2nnc3ccccc32)cc1
3. COc1cc(/C=C/c2cc(/C=C/c3ccc(O)c(OC)c3)n(C(=O)Nc3ccc(C)cc3C)n2)ccc1O

Response:
1: 52.1; 2: 95.2; 3: -21.4

Required: growth, one value per molecule below.
1. O=C(Nc1ccc(Oc2cccc(F)c2)c(Cl)c1)c1cnccn1
2. O=C(Nc1cccc(Cl)c1)Oc1c(Cl)c(Cl)c(Cl)c(Cl)c1Cl
3. CCOC(=O)C1=C(c2ccccc2)N=C2SC=C(c3cccc([N+](=O)[O-])c3)N2C1c1ccc(O)cc1 (stereo unspecified)
4. O=C1c2ccccc2C(=O)c2cc(Cn3c[n+](Cc4ccc5ccccc5c4)c4ccccc43)ccc21
5. CCOC(=O)c1c(C)nc2c(c1N)C(=O)C(=O)N2CCc1ccc(OC)c(OC)c1
6. Cc1ccccc1NC(=O)Cn1cc(CN2CCN(c3ccnc4cc(Cl)ccc34)CC2)nn1
7. CCN1C(=O)N(CC)C2C1NN=c1s/c(=C3\C(=O)N(C)c4ccccc43)c(=O)n12 (stereo unspecified)

Response:
64.9
110
96.1
42.9
46.8
109
94.6

For each of the molecules below, state growth.
1. O=C(Nc1ccc2[nH]ncc2c1)c1csc(Nc2ccccc2)n1
2. CCOC(=O)CCC(=O)P(=O)(O)O

Response:
1. 77.2
2. 93

Required: growth, one value per molecule below.
1. COc1cccc2cc(N(C)c3nc(C)nc4c3CCC4)ccc12
2. CCCN1C2CCC1/C(=C\c1ccc(OC)cc1)C(=O)/C2=C/c1ccc(OC)cc1
3. Cn1cc(-c2csc(-c3cn(C)c4ccc(F)cc34)n2)c2cnccc21
4. COC1CC(O)C2=C(CC3C(/C(C)=C\CC=C(C)C)CCC3(C)O2)C1=O (stereo unspecified)
5. COCCn1cc(-c2nc(-c3cc4cccnc4n3C)cs2)c2cc(OC)ccc21
6. Nc1ncc(-c2ccc3ncnc(N4CCc5cc(F)c(Cl)cc54)c3c2)cc1C=O
7. COc1ccc(CNc2c3ccccc3nc3ccccc23)cc1OC

Response:
1. 59.1
2. 44.4
3. -73.1
4. 95.2
5. 74.3
6. 24.6
7. 22.1

Working through the 8 molecules below one at a time, give growth for each.
1. COc1ccc(/C=C2/CCc3cc4ccc(OC)cc4[o+]c32)c(O)c1
2. COc1ccc(-c2cn(Cc3ccc4c(Br)cc(Br)c(O)c4n3)nn2)cc1
3. CCOC(=O)c1c(C)n2c(=O)cc(C)c3c(OC(C)=O)c(OC(C)=O)cc1c32
4. O=C(/C=C\c1ccc(O)c(O)c1)c1ccccc1O
5. Cc1cc(=O)oc2cc(Oc3nc(-c4ccccc4)cn4c(-c5ccccc5)cnc34)ccc12
6. COc1cc(OCc2cccc(-c3ccc4c(c3)OCCO4)c2C)cc(OC)c1C=O
7. COc1cc(/C=C/C(=O)c2ccc(-n3cc(CN4CCN(c5cc6c(cc5F)c(=O)c(C(=O)O)cn6C5CC5)CC4)nn3)cc2)cc(OC)c1OC
8. CCCCCCCCNC(=O)[C@@H](N)CSCOC(C)=O

Response:
[87.4, 87.9, 108, 86.1, 65.7, 42.3, 90.1, 110]

Provide the reported growth of each entry below, same order.
1. COC(=O)c1c(C)nc(C)c2c1C(=O)C(Br)=C(NCCN1CCOCC1)C2=O
2. COC(=O)c1c(C)nc(C)c2c1C(=O)C(Br)=C(NCCCCO)C2=O

Response:
1: 87.5; 2: 45.6

Prompt: Which growth reading was recorded for the molecule Cc1c2cnccc2c(C)c2c1c1cc(C(=O)O)ccc1n2C ?
Response: -31.4
